System: MALME-3M melanoma
Assay: NCI-60 one-dose screen, 48 h (100 = growth as untreated, 0 = no growth, -100 = all killed)
Conditions: 10 µM unless noted
This is part of a sample that, as a whole, favours compounds with a hit. Of some 83,000 tested, about 20% had one in any assay.
Could you please report measured growth for the items listed next?
Give bare numbers, in %.

Use the examples below as a reference point.
compound	growth / %
CN(C)CCCNc1nn2c(=O)c3ccccc3nc2c2ccccc12	66.4
C[C@H]1c2cccc(O)c2C(O)=C2C(=O)[C@]3(O)C(O)=C(C(N)=O)C(=O)[C@@H](N(C)C)[C@@H]3[C@@H](O)[C@@H]21	27.8
O=C(N/N=C/c1cccc(O)c1)c1ccc(C(F)(F)F)nc1Nc1cccc(C(F)(F)F)c1	1.33

Below are 3 compounds. Give each one its growth.
1. NS(=O)(=O)c1cc(C2(O)NC(=O)c3ccccc32)ccc1Cl (stereo unspecified)
2. Cc1ccc(/C=C/C(=O)c2ccc(F)cc2)s1
3. COc1ccc2c3c(ccc2c1)C(=O)/C(=C\O)CC3

95.4
78.9
135

---

Test system: IGROV1 ovarian
Test: NCI-60 one-dose screen, 48 h (100 = growth as untreated, 0 = no growth, -100 = all killed)
Details: 10 µM unless noted
The panel holds about 83,000 compounds, 20% with a hit somewhere; the sample as a whole holds those more often.
Label Criterion met when growth is at or above 50%; anything below gets Criterion not met.

As a guide, the following entries are already answered.
compound	assigned-class
O=C1OC2(c3ccccc31)c1ccccc1-c1ccccc12	Criterion met
N#CSCC1CC(O)(c2ccccc2)C(c2ccccc2)C(c2ccc(Cl)cc2)O1 (stereo not given)	Criterion not met
COc1cc(/C=C/C(=O)C(C(=O)/C=C/c2ccc(OC(=O)CCNc3nnc(C)s3)c(OC)c2)C(=O)CCNc2nnc(C)s2)ccc1OC(=O)CCNc1nnc(C)s1	Criterion not met

Has COc1ccc(-n2cnc3cc(C(=O)N4CCCCC4)ccc32)cc1 a recorded growth greater than or equal to 50%? Criterion met

---

Test system: HS 578T breast
Test: NCI-60 one-dose screen, 48 h (100 = growth as untreated, 0 = no growth, -100 = all killed)
Settings: 10 µM unless noted
About 83,000 compounds went through this panel and 20% of them were active in at least one assay; those are over-represented in the sample as a whole.
Would you mind telling me the reported growth of each entry?
One number for each entry, in %.

compound	growth / %
COc1ccccc1NC(=O)c1sc2nc3c(cc2c1N)C(=O)CCC3	65.6

Required: growth, one value per compound below.
1. O=C(COc1cccc(/C=C2\Oc3ccc4ccccc4c3C2=O)c1)c1ccc([N+](=O)[O-])cc1
2. O=C(CC(C(=O)c1ccccc1)N1CCN(Cc2ccccc2)CC1)c1ccccc1 (stereo unspecified)
3. O=C(COc1cccc(/C=C2\Oc3ccc4ccccc4c3C2=O)c1)c1ccc(Cl)cc1
4. CN(C)c1ccc(-n2nc3ccccc3n2)cc1
5. CCN(CC)CCCCCCCNc1c2ccc(Cl)cc2nc2ccc(OC)cc12
6. Nc1nc(NC2CC2)c2ncn(C3C=CC(CO)C3)c2n1 (stereo unspecified)

[93.1, 92.5, 92.8, 96.4, -42.7, 104]

---

Test system: T-47D breast
Test: NCI-60 one-dose screen, 48 h
Conditions: 10 µM unless noted
The panel holds about 83,000 compounds, 20% with a hit somewhere; the sample as a whole holds those more often. Active and inactive are the calls of the source. The calls were made as follows: active = growth percent below 10; inactive = the rest.
The reply should be one of these categories: 1 (yes) (active), 0 (no) (inactive)

Sample answers from the record:
compound	assigned-class
Cc1cc(Cl)ccc1Nc1nc(C(F)(F)F)ccc1C(=O)N/N=C/c1ccc(Cl)cc1	1 (yes)
COc1cnc2c(c1)C(=O)c1c-2n(CCCN2CCNCC2)c(=O)c2cc(F)ccc12	1 (yes)
COc1ccc(NC(=O)c2ccccc2-c2ccccc2)c(C(N)=O)c1	0 (no)
COc1ccc(C2CC(c3ccc(Nc4ccnc5cc(Cl)ccc45)cc3)=NN2C(C)=O)cc1 (centres undefined)	0 (no)
NS(=O)(=O)c1ccc(-n2ncc3c(NC4CCCCC4)ncnc32)cc1	0 (no)
O=C(O)C1CCN(S(=O)(=O)c2ccc(-c3ccccc3)cc2)CC1	0 (no)
CC[C@@H](c1ccc(O)c(O)c1)[C@@H](CC)c1ccc(O)c(O)c1	1 (yes)
COc1ccc2c(c1)CC/C(=C\c1ccc(OCC(=O)Nc3nc4ccccc4s3)cc1)C2=O	0 (no)
O=C(Nc1cccc(-n2cc(-c3ccncc3)c(-c3cc(O)cc(Cl)c3)n2)c1)Nc1ccc(Cl)c(Cl)c1	1 (yes)
O=C1C=CC(=O)N1c1ccccn1	0 (no)

What was the test verdict on O=C(CNC(=O)c1cccc2ccccc12)Nc1ccccc1Oc1cccc(O)c1 ? 0 (no)

What call does the record list for COc1ccc([N+](=O)[O-])c(S(=O)(=O)c2ccc(Cl)cc2)n1 ? 0 (no)

For this compound, state the assay outcome: O=C1c2cc3c(cc2-c2c1c1ccc(Cl)cc1c(=O)n2CCCNCCO)OCO3 1 (yes)

Hi, sorry to bother you, what did the test record for O=C(c1ccc(N2CCOCC2)cc1[N+](=O)[O-])N1CCOCC1 ? 0 (no)

Give the logged outcome of this assay for the following compound: C[C@H]1O[C@@H](O[C@H]2[C@@H](O)C[C@H](O[C@H]3[C@@H](O)C[C@H](O[C@H]4CC[C@]5(C)C6CC[C@]7(C)[C@@H](C8=CC(=O)OC8)CC[C@]7(O)C6CC[C@@H]5C4)O[C@@H]3C)O[C@@H]2C)C[C@H](O)[C@@H]1O (some centres undefined) 1 (yes)

Lab log entry: COC(=O)[C@H](Cc1cn(C)cn1)NC(=O)[C@@H](NC(=O)Nc1cc(C(F)(F)F)cc(C(F)(F)F)c1)C(C)C — outcome as called in the assay? 1 (yes)

Fill in: this test's call for N#Cc1c(-c2ccccc2)cc(-c2ccccc2)n(CCCCC(=O)O)c1=O is ___ 0 (no)

Field: outcome | Entry: O=C(O)CCNS(=O)(=O)c1ccc(-c2ccccc2)cc1 0 (no)

Kindly provide the recorded test outcome for the following compound: COc1cnc2c(c1)C(=O)c1c-2n(CCCn2ccnc2)c(=O)c2cc(F)ccc12 1 (yes)

---

Test system: RXF 393 renal
Assay: NCI-60 one-dose screen, 48 h (100 = growth as untreated, 0 = no growth, -100 = all killed)
Settings: 10 µM unless noted
This is part of a sample that, as a whole, favours compounds with a hit. Of some 83,000 tested, about 20% had one in any assay.
quantity-kind: growth (%)
Give bare numbers, in %.

molecule	result-units	growth
CC(NC(=O)Oc1cccc2ccccc12)c1ccccc1 (stereo not given)	%	105
O=C1Nc2ccc(Cl)cc2/C1=C/c1cccs1	%	94.3
O=C(O)c1ccc2cccnc2c1O	%	27.7

Could you tell me growth for each of these molecules? They are listed below.
1. O=C(CSc1ncc(-c2ccccc2)n1-c1ccccc1)Nc1ccc(-c2nc3ccccc3s2)cc1
2. COc1cccc(N2CCN(c3cccc(C)n3)CC2)c1
3. O=C1OC(Oc2ccccc2)(c2ccccc2)c2ccccc21 (stereo not given)

1: 93.2; 2: 76.4; 3: 120

---

Test system: NCI-H522 lung
Assay: NCI-60 one-dose screen, 48 h (100 = growth as untreated, 0 = no growth, -100 = all killed)
Conditions: 10 µM
Compounds without any hit were thinned out: in the full panel of roughly 83,000, 20% have a hit.
Can you tell me growth for the items I'm about to list?
Answers are plain numbers, in %.

compound	assay-result
COC(=O)c1c(NC(=O)CSc2nnnn2-c2ccc(OC)cc2)sc(C)c1C	91.1
CN[C@@H]1C(OC2[C@H](O[C@H]3[C@H](O)[C@@H](O)[C@H](N=C(N)N)[C@@H](O)[C@@H]3N=C(N)N)OC(C)[C@]2(O)CO)OC(CO)C(O)C1O (some centres undefined)	112
Nc1ccn(C2O[C@H](CO)[C@@H](O)[C@@H]2O)c(=O)n1 (some centres undefined)	68.1
O=C(COc1cccc(/C=C2\Cc3ccccc3C2=O)c1)c1ccc(Cl)cc1	81.1
CSc1nc2nc3c(c(-c4ccc(C)cc4)c2c(=O)[nH]1)CN(C)C/C3=C\c1ccc(C)cc1	93.2

For each entry beneath this line, provide reported growth.
1. O=C(COc1ccc(/C=C2\Oc3ccc4ccccc4c3C2=O)cc1)c1ccc(Cl)cc1
2. OCCN1CCN(CCCN2c3ccccc3Sc3ccc(C(F)(F)F)cc32)CC1
3. COc1ccc(C2CC(c3ccc(Nc4ccnc5cc(Cl)ccc45)cc3)=NN2C(C)=O)cc1 (centres undefined)

1. 61.9
2. 19.5
3. 67.3

Find growth (NCI-H522 lung) for the entry Cc1nn(-c2nc3ccccc3s2)c(C)c1Oc1ccccc1O 59.9

---

System: NCI-H522 lung
Assay: NCI-60 one-dose screen, 48 h (100 = growth as untreated, 0 = no growth, -100 = all killed)
Conditions: 10 µM
This is part of a sample that, as a whole, favours compounds with a hit. Of some 83,000 tested, about 20% had one in any assay.
Assign growth to each entry below.
Give bare numbers, in %.

The examples below pair each entry with its known result.
compound	result-units	growth
COc1ccc(/C=C/C(=O)c2cccc(NS(C)(=O)=O)c2)cc1	%	66.5
COc1cc(OC)c2c(c1Cl)O[C@]1(C2=O)C(OCc2ccccc2)=CC(=O)C[C@H]1C	%	-24.7

Count: 2. Required value per item: growth.
1. CCSc1nc(-c2ccc(F)cc2)c(C#N)c(=O)[nH]1
2. O=C(NC1CCS(=O)(=O)C1)c1ccc(C(=O)c2ccccc2)cc1 (stereo unspecified)

1: 96.8; 2: 90.9

Each of the following entries comes with a recorded value; kindly state growth for each.
1. O=[N+]([O-])c1ccc2[nH]cc(-c3c4ccccc4cc4[nH]c5ccc([N+](=O)[O-])cc5c34)c2c1
2. C1CCC(C(CC2CCCCN2)C2CCCCC2)CC1 (stereo unspecified)

[11.3, -16.8]

I'm hoping you can list growth for every compound here, please.
1. Cc1cn(C(C=O)OC(C=O)CO)c(=O)[nH]c1=O (stereo unspecified)
2. Cc1cc2ccccn2c1C(=O)c1ccc(C(=O)c2ccccc2)cc1
3. CC(=O)N1N=C(c2ccc(Nc3ccnc4cc(Cl)ccc34)cc2)CC1c1ccc(Cl)cc1 (stereo unspecified)
4. CCCn1c(N)c(C(=O)CNc2ccc(I)cc2)c(=O)[nH]c1=O
5. C=CCNC(=O)/C(=C/c1cccc([N+](=O)[O-])c1)NC(=O)c1ccccc1

98
79.7
24
50.9
97.5

Please go through the list and note growth for each compound.
1. O=C(c1ccc(Cl)cc1)c1ccc(Cl)cc1
2. O=C(Nc1ccccc1)P(=O)(O)c1ccccc1
3. O=C(Nc1ccc(Cl)cc1)Nc1ccccc1CNc1nc(Nc2ccc(OCCN3CCCC3)cc2)ncc1Cl
4. O=C(/C=C(\Nc1ccccc1)c1ccccc1)c1cn(-c2ccc([N+](=O)[O-])cc2)nn1

1: 85.2; 2: 102; 3: -17; 4: 86.1

List the reported growth of each compound below.
1. CC1Cc2ccccc2N1C(=O)c1ccc(C(=O)c2ccccc2)cc1 (stereo unspecified)
2. COc1ccc(Cl)cc1Nc1nc(C(F)(F)F)ccc1C(=O)N/N=C/c1c(Cl)cccc1Cl
3. COc1ccc2c(c1)CC/C(=C\c1ccc(OCC(=O)Nc3nc4ccccc4s3)cc1)C2=O
4. COc1cc2c(cc1OC)C(=O)/C(=C/c1cccc(OCC(=O)c3ccccc3)c1)C2
5. NS(=O)(=O)c1cc2c(cc1Cl)NC=NS2(=O)=O

[77.3, 39.2, 85.4, 48.3, 91.4]

I have this compound here, CCOC(=O)Nc1cc(-c2ccc(C)c(NS(C)(=O)=O)c2)nn2c(C)nnc12 , and I need its recorded growth. -11.8

The reported measurements were obtained from PubChem BioAssay (NCI).
